- TEST DESCRIPTION: Stability in pH 7.4 PBS buffer at 1 mM after 1 hr by HPLC analysis
- Format: physicochemical
- TEST SETTINGS: read-out: Stability
Catalogue of remaining at 1 h, 1000 µM values
READOUT KIND: remaining at 1 h, 1000 µM (%)

>>> observed_value("CC(=O)N[C@@H](Cc1ccccc1)C(=O)N[C@@H](CC(C)C)C(=O)N[C@@H](CC(C)C)C(=O)N[C@@H](Cc1ccc(N)cc1)CS(=O)(=O)F")
90
>>> observed_value("CC(C)C[C@H](NC(=O)[C@H](Cc1ccccc1)N=[N+]=[N-])C(=O)N[C@@H](CC(C)C)C(=O)N[C@@H](Cc1ccc(CN)cc1)CS(=O)(=O)F")
90
>>> observed_value("CC(C)C[C@H](NC(=O)[C@H](CC(C)C)NC(=O)[C@@H](N)Cc1ccccc1)C(=O)N[C@@H](CCCCN)CS(=O)(=O)F")
90

----------
- SYSTEM UNDER TEST: Proteasome Macropain subunit MB1 (Homo sapiens, UniProt P28074)
- Sequence (P28074 whole entry): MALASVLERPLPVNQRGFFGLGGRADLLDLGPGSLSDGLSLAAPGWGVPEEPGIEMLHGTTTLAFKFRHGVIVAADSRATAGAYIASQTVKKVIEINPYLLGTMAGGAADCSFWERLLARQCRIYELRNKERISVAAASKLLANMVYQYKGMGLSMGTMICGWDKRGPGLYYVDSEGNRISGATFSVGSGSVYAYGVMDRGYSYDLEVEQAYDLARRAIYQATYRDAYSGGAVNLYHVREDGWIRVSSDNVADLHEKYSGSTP
- TEST DESCRIPTION: Inhibition of human 20S constitutive proteasome beta-5 using Suc-LLVY-AMC as substrate after 60 mins by fluorescence assay
pIC50: −log10 of the molar value.
READOUT KIND: pIC50

>>> observed_value("CC(C)C[C@H](NC(=O)[C@H](Cc1ccccc1)N=[N+]=[N-])C(=O)N[C@@H](CC(C)C)C(=O)N[C@@H](Cc1ccc(CN)cc1)CS(=O)(=O)F")
5.05
>>> observed_value("CC(=O)N[C@@H](Cc1ccccc1)C(=O)N[C@@H](CC(C)C)C(=O)N[C@@H](CC(C)C)C(=O)N[C@@H](Cc1ccc(CN)cc1)CS(=O)(=O)F")
4.74
>>> observed_value("CC(C)C[C@H](NC(=O)OCc1ccccc1)C(=O)N[C@@H](CC(C)C)C(=O)N[C@@H](CC(C)C)C(=O)N[C@@H](CCCNC(=N)N)CS(=O)(=O)F")
5.00

----------
- SYSTEM UNDER TEST: Proteasome subunit beta type-10 (Homo sapiens)
- Sequence (P40306 whole entry): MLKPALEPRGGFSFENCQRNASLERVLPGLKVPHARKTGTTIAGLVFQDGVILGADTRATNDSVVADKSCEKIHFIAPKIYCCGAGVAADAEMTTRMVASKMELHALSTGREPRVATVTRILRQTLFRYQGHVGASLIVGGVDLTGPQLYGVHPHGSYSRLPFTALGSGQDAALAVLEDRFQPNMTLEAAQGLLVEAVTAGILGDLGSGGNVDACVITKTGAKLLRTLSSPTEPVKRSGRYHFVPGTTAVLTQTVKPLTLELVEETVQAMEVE
- TEST DESCRIPTION: Inhibition of human 20S immunoproteasome beta-2 using Bz-VGR-AMC as substrate after 60 mins by fluorescence assay
Catalogue of IC50 values
READOUT KIND: IC50 (nM)

>>> observed_value("CC(=O)N[C@@H](Cc1ccccc1)C(=O)N[C@@H](CC(C)C)C(=O)N[C@@H](CC(C)C)C(=O)N[C@@H](Cc1ccc(CN)cc1)CS(=O)(=O)F")
395
>>> observed_value("CC(C)C[C@H](NC(=O)OCc1ccccc1)C(=O)N[C@@H](CC(C)C)C(=O)N[C@@H](CC(C)C)C(=O)N[C@@H](CCCNC(=N)N)CS(=O)(=O)F")
1110
>>> observed_value("CC(C)C[C@H](NC(=O)[C@H](CC(C)C)NC(=O)[C@@H](N)Cc1ccccc1)C(=O)N[C@@H](Cc1ccc(N)cc1)CS(=O)(=O)F")
200
>>> observed_value("CC(C)C[C@H](NC(=O)[C@H](CC(C)C)NC(=O)[C@@H](N)Cc1ccccc1)C(=O)N[C@@H](Cc1ccc(CN)cc1)CS(=O)(=O)F")
360
>>> observed_value("CC(C)C[C@H](NC(=O)[C@H](CC(C)C)NC(=O)[C@@H](N)Cc1ccccc1)C(=O)N[C@@H](CCCNC(=N)N)CS(=O)(=O)F")
210
>>> observed_value("CC(C)C[C@H](NC(=O)[C@H](Cc1ccccc1)N=[N+]=[N-])C(=O)N[C@@H](CC(C)C)C(=O)N[C@@H](Cc1ccc(CN)cc1)CS(=O)(=O)F")
130

----------
Catalogue of pIC50 values
- SYSTEM UNDER TEST: Proteasome Macropain subunit MB1 (Homo sapiens, UniProt P28074)
- TEST DESCRIPTION: Inhibition of human 20S constitutive proteasome beta-5 using Suc-LLVY-AMC as substrate after 60 mins by fluorescence assay
pIC50: −log10 of the molar value.
READOUT KIND: pIC50

>>> observed_value("CC(C)C[C@H](NC(=O)[C@H](CC(C)C)NC(=O)[C@H](Cc1ccccc1)NC(=O)OCc1ccccc1)C(=O)N[C@@H](CCCNC(=N)N)CS(=O)(=O)F")
5.17
>>> observed_value("CC(=O)N[C@@H](Cc1ccccc1)C(=O)N[C@@H](CC(C)C)C(=O)N[C@@H](CC(C)C)C(=O)N[C@@H](Cc1ccc(N)cc1)CS(=O)(=O)F")
6.68
>>> observed_value("CC(C)C[C@H](NC(=O)[C@H](Cc1ccccc1)N=[N+]=[N-])C(=O)N[C@@H](CC(C)C)C(=O)N[C@@H](CCCNC(=N)N)CS(=O)(=O)F")
4.41
>>> observed_value("CC(C)C[C@H](NC(=O)[C@H](CC(C)C)NC(=O)[C@@H](N)Cc1ccccc1)C(=O)N[C@@H](Cc1ccc(CN)cc1)CS(=O)(=O)F")
3.90
>>> observed_value("CC(C)C[C@H](NC(=O)[C@H](CC(C)C)NC(=O)[C@@H](N)Cc1ccccc1)C(=O)N[C@@H](Cc1ccc(N)cc1)CS(=O)(=O)F")
6.02
>>> observed_value("CC(=O)N[C@@H](Cc1ccccc1)C(=O)N[C@@H](CC(C)C)C(=O)N[C@@H](CC(C)C)C(=O)N[C@@H](CCCNC(=N)N)CS(=O)(=O)F")
4.16
>>> observed_value("CC(C)C[C@H](NC(=O)[C@H](CC(C)C)NC(=O)[C@H](Cc1ccccc1)NC(=O)OC(C)(C)C)C(=O)N[C@@H](CCCNC(=N)N)CS(=O)(=O)F")
4.56
>>> observed_value("CC(C)C[C@H](NC(=O)[C@H](CC(C)C)NC(=O)[C@@H](N)Cc1ccccc1)C(=O)N[C@@H](CCCNC(=N)N)CS(=O)(=O)F")
3.85
>>> observed_value("CC(C)C[C@H](NC(=O)[C@H](Cc1ccccc1)N=[N+]=[N-])C(=O)N[C@@H](CC(C)C)C(=O)N[C@@H](CCCCN)CS(=O)(=O)F")
4.17

----------
Catalogue of IC50 values
- SYSTEM UNDER TEST: Proteasome subunit beta type-8 (Homo sapiens, UniProt P28062)
- Sequence (P28062 whole entry): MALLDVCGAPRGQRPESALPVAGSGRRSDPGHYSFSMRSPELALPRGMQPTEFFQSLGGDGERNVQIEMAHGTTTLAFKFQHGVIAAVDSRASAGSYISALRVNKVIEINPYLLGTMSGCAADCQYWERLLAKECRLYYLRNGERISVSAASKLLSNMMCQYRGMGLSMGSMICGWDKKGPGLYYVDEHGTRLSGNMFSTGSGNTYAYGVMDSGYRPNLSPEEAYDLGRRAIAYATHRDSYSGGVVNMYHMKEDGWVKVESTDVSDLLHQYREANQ
- TEST DESCRIPTION: Inhibition of human 20S immunoproteasome beta-5 using Suc-LLVY-AMC as substrate after 60 mins by fluorescence assay
READOUT KIND: IC50 (µM)

>>> observed_value("CC(C)C[C@H](NC(=O)[C@H](CC(C)C)NC(=O)[C@H](Cc1ccccc1)NC(=O)OCc1ccccc1)C(=O)N[C@@H](CCCNC(=N)N)CS(=O)(=O)F")
6.7
>>> observed_value("CC(C)C[C@H](NC(=O)[C@H](CC(C)C)NC(=O)[C@@H](N)Cc1ccccc1)C(=O)N[C@@H](Cc1ccc(CN)cc1)CS(=O)(=O)F")
137
>>> observed_value("CC(C)C[C@H](NC(=O)[C@H](Cc1ccccc1)N=[N+]=[N-])C(=O)N[C@@H](CC(C)C)C(=O)N[C@@H](Cc1ccc(CN)cc1)CS(=O)(=O)F")
3.1
>>> observed_value("CC(=O)N[C@@H](Cc1ccccc1)C(=O)N[C@@H](CC(C)C)C(=O)N[C@@H](CC(C)C)C(=O)N[C@@H](Cc1ccc(CN)cc1)CS(=O)(=O)F")
17.2
>>> observed_value("CC(C)C[C@H](NC(=O)[C@H](CC(C)C)NC(=O)[C@@H](N)Cc1ccccc1)C(=O)N[C@@H](Cc1ccc(N)cc1)CS(=O)(=O)F")
0.45
>>> observed_value("CC(C)C[C@H](NC(=O)[C@H](Cc1ccccc1)N=[N+]=[N-])C(=O)N[C@@H](CC(C)C)C(=O)N[C@H](/C=C/S(C)(=O)=O)Cc1ccc(CN)cc1")
1.8
>>> observed_value("CC(C)C[C@H](NC(=O)OCc1ccccc1)C(=O)N[C@@H](CC(C)C)C(=O)N[C@@H](CC(C)C)C(=O)N[C@@H](CCCNC(=N)N)CS(=O)(=O)F")
14

----------
Catalogue of Ratio IC50 values
- Organism: Homo sapiens
- TEST DESCRIPTION: Selectivity ratio of IC50 for human 20S immunoproteasome beta-5 to IC50 for human 20S immunoproteasome beta-2
READOUT KIND: Ratio IC50

>>> observed_value("CC(C)C[C@H](NC(=O)[C@H](CC(C)C)NC(=O)[C@@H](N)Cc1ccccc1)C(=O)N[C@@H](Cc1ccc(CN)cc1)CS(=O)(=O)F")
380
>>> observed_value("CC(=O)N[C@@H](Cc1ccccc1)C(=O)N[C@@H](CC(C)C)C(=O)N[C@@H](CC(C)C)C(=O)N[C@@H](Cc1ccc(CN)cc1)CS(=O)(=O)F")
44
>>> observed_value("CC(C)C[C@H](NC(=O)OCc1ccccc1)C(=O)N[C@@H](CC(C)C)C(=O)N[C@@H](CC(C)C)C(=O)N[C@@H](CCCNC(=N)N)CS(=O)(=O)F")
13
>>> observed_value("CC(C)C[C@H](NC(=O)[C@H](Cc1ccccc1)N=[N+]=[N-])C(=O)N[C@@H](CC(C)C)C(=O)N[C@@H](Cc1ccc(CN)cc1)CS(=O)(=O)F")
24
>>> observed_value("CC(C)C[C@H](NC(=O)[C@H](CC(C)C)NC(=O)[C@@H](N)Cc1ccccc1)C(=O)N[C@@H](Cc1ccc(N)cc1)CS(=O)(=O)F")
2.3

// data source = ChEMBL document CHEMBL4118199
